Source listed as patent US8389764B2.

# measured-on: TAFIa (Homo sapiens)
# protocol-details: TAFIa inhibition, Actichrome plasma TAFI activity kit (American Diagnostica)
# conditions: 15 min preincubation at room temperature, read at 420 nm, duplicate determination of serial dilutions
pIC50: −log10 of the molar value. Numbered stars: 1 amine (or outer) side, 2 acyl side, 3 side chain; on linkers, the order of the positions; unused ones are H or OH. Square brackets hold non-standard residues; d marks the D form. Peptide text beside a SMILES is read from it. * marks the point of attachment. dCha = N[C@H](CC1CCCCC1)C(=O)O; Cbz = O=C(OCc1ccccc1)*; CO = O=C([*:1])[*:2]
outcome-measure: pIC50

Recorded results for 3 compounds are shown here.
compound	numeric-result
CCOC(=O)[C@@H](NC(=O)[C@@H](NC(=O)[C@@H](CCCCNC(=O)OCc1ccccc1)NC(=O)N[C@@H](CCCCN)C(=O)O)C(C)C)C(C)C [Example 118] ({Lys-CO}-[dK](Cbz)-Val-Val-OEt)	6.57
CC1(C)[C@@H]2CC[C@@]1(C)[C@@H](NC(=O)[C@@H](CC1CCCCC1)NC(=O)N[C@@H](CCCNC(=N)N)C(=O)O)C2	8.40
C[C@@H]1C(CNC(=O)[C@@H](CC2CCCCC2)NC(=O)N[C@@H](CCCCN)C(=O)O)CC2C[C@@H]1C2(C)C (stereo partly drawn)	6.18

I: COC(=O)[C@H](Cc1ccc(O)cc1)NC(=O)[C@@H](NC(=O)[C@@H](CC1CCCCC1)NC(=O)N[C@@H](CCCCN)C(=O)O)C(C)C [Example 133] ({Lys-CO}-[dCha]-Val-Tyr-OMe)
II: NCCCC[C@H](NC(=O)N[C@H](CC1CCCCC1)C(=O)NC1C2CC3CC(C2)CC1C3)C(=O)O (stereo partly drawn)
Between I and II , whose recorded pIC50 is greater? Provide the label of your selected option as the answer. II

###

# measured-on: TAFIa (Homo sapiens)
# protocol-details: TAFIa inhibition, Actichrome plasma TAFI activity kit (American Diagnostica)
# conditions: 15 min preincubation at room temperature, read at 420 nm, duplicate determination of serial dilutions
pIC50: −log10 of the molar value.
outcome-measure: pIC50

Recorded results for 4 compounds are shown here.
compound	pIC50
CC1(C)[C@@H]2CC[C@@]1(C)[C@@H](NC(=O)[C@@H](CC1CCCCC1)NC(=O)NC(Cc1ccc(N)nc1)C(=O)O)C2 (stereo partly drawn)	8.22
CC1(C)[C@@H]2CC[C@@]1(C)[C@@H](NC(=O)[C@H](CC1CCC1)NS(=O)(=O)N[C@@H](CCCCN)C(=O)O)C2	6.45
CC(C)[C@H](NC(=O)[C@@H](CCCCNC(=O)OCc1ccccc1)NC(=O)N[C@@H](CCCCN)C(=O)O)C(=O)NCC(C)(C)C	6.43
CC1(C)C2CCC1(C)[C@@H](NC(=O)[C@@H](CC1CCCCC1)NC(=O)N[C@@H](CCCCN)C(=O)O)C2 (stereo partly drawn)	8.52

1: COC(=O)[C@@H](NC(=O)[C@@H](NC(=O)[C@H](Cc1ccccc1)NS(=O)(=O)N[C@@H](CCCCN)C(=O)O)C(C)C)C(C)C
2: Cc1ccccc1CCNC(=O)[C@@H](CC1CCCCC1)NC(=O)N[C@@H](CCCCN)C(=O)O
Between 1 and 2 , whose recorded pIC50 is greater? Provide the label of your selected option as the answer. 2

###

# measured-on: TAFIa (Homo sapiens, UniProt Q96IY4)
# protocol-details: TAFIa inhibition, Actichrome plasma TAFI activity kit (American Diagnostica)
# conditions: 15 min preincubation at room temperature, read at 420 nm, duplicate determination of serial dilutions
Numbered stars: 1 amine (or outer) side, 2 acyl side, 3 side chain; on linkers, the order of the positions; unused ones are H or OH. Square brackets hold non-standard residues; d marks the D form. Peptide text beside a SMILES is read from it. * marks the point of attachment. Cbz = O=C(OCc1ccccc1)*; CO = O=C([*:1])[*:2]
outcome-measure: IC50 (nM)

compound	measured-on	outcome-measure	numeric-result
CC(C)[C@H](NC(=O)[C@@H](CCCCNC(=O)OCc1ccccc1)NC(=O)N[C@@H](CCCCN)C(=O)O)C(=O)N[C@@H]1C[C@H]2CC[C@@H]1C2 [Example 114]	TAFIa (Homo sapiens, UniProt Q96IY4)	IC50	519
CC(C)[C@@H](NC(=O)N[C@@H](CCCCN)C(=O)O)C(=O)N[C@H]1C[C@H]2CC[C@]1(C)C2(C)C [Example 97]	TAFIa (Homo sapiens, UniProt Q96IY4)	IC50	462
COC(=O)[C@H](Cc1c[nH]c2ccccc12)NC(=O)[C@@H](NC(=O)[C@@H](CCCCNC(=O)OCc1ccccc1)NC(=O)N[C@@H](CCCCN)C(=O)O)C(C)C [Example 134] ({Lys-CO}-[dK](Cbz)-Val-Trp-OMe)	TAFIa (Homo sapiens, UniProt Q96IY4)	IC50	532

###

# measured-on: TAFIa (Homo sapiens)
# Sequence (Q96IY4 115-423): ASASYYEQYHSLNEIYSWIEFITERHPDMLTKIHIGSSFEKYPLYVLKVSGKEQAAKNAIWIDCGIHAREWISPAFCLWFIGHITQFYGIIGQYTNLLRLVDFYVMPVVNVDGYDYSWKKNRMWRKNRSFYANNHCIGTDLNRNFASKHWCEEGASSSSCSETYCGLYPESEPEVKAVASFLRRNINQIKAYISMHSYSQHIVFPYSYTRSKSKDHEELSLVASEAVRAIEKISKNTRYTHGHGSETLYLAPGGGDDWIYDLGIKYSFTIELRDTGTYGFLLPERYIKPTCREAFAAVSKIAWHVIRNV
# protocol-details: TAFIa inhibition, Actichrome plasma TAFI activity kit (American Diagnostica)
# conditions: 15 min preincubation at room temperature, read at 420 nm, duplicate determination of serial dilutions
Numbered stars: 1 amine (or outer) side, 2 acyl side, 3 side chain; on linkers, the order of the positions; unused ones are H or OH. Square brackets hold non-standard residues; d marks the D form. Peptide text beside a SMILES is read from it. * marks the point of attachment. Cbz = O=C(OCc1ccccc1)*; CO = O=C([*:1])[*:2]
outcome-measure: IC50 (nM)

compound	unit-name	numeric-result
CC(C)CCNC(=O)[C@@H](CCCCNC(=O)OCc1ccccc1)NC(=O)N[C@@H](CCCCN)C(=O)O	nM	1420

I: CC1(C)[C@@H]2CC[C@@]1(C)C(NC(=O)[C@@H](Cc1ccccc1)NC(=O)N[C@@H](CCCCN)C(=O)O)C2 (stereo partly drawn)
II: CC(C)[C@H](NC(=O)[C@@H](CCCCNC(=O)OCc1ccccc1)NC(=O)N[C@@H](CCCCN)C(=O)O)C(=O)N[C@@H]1C[C@H]1c1ccccc1
III: CC(C)[C@H](NC(=O)[C@@H](NC(=O)[C@@H](CCCCNC(=O)OCc1ccccc1)NC(=O)N[C@@H](CCCCN)C(=O)O)C(C)C)C(N)=O [Example 140] ({Lys-CO}-[dK](Cbz)-Val-Val-NH2)
IV: CC1(C)C2CC[C@@]1(C)[C@@H](NC(=O)[C@@H](CC1CCCCC1)NC(=O)N[C@@H](CCONC(=N)N)C(=O)O)C2
V: NCCCC[C@H](NC(=O)N[C@H](CC1CCCCC1)C(=O)NC1CCC2CCCCC2C1)C(=O)O (stereo partly drawn)
Parameters: sort_field (IC50), sort_dir (desc). Your answer should be the labels, listed in the requested order. IV, II, III, V, I
(IV: 1100 nM, II: 693 nM, III: 318 nM, V: 160 nM, I: 15 nM)

###

# measured-on: TAFIa (Homo sapiens)
# Sequence (Q96IY4 115-423): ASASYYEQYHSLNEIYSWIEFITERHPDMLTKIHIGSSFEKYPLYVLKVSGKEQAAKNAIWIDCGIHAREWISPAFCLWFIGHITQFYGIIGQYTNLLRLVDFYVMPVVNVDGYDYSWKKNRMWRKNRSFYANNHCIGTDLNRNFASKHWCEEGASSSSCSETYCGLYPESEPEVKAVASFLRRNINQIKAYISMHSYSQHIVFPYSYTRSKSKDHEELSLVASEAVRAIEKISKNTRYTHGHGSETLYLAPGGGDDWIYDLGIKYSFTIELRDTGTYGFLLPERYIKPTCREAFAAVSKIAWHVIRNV
# protocol-details: TAFIa inhibition, Actichrome plasma TAFI activity kit (American Diagnostica)
# conditions: 15 min preincubation at room temperature, read at 420 nm, duplicate determination of serial dilutions
pIC50: −log10 of the molar value. Numbered stars: 1 amine (or outer) side, 2 acyl side, 3 side chain; on linkers, the order of the positions; unused ones are H or OH. Square brackets hold non-standard residues; d marks the D form. Peptide text beside a SMILES is read from it. dCha = N[C@H](CC1CCCCC1)C(=O)O; CO = O=C([*:1])[*:2]
outcome-measure: pIC50

I: CC(C)[C@H](NC(=O)[C@@H](NC(=O)[C@@H](CC1CCCCC1)NC(=O)N[C@@H](CCCCN)C(=O)O)C(C)C)C(N)=O [Example 137] ({Lys-CO}-[dCha]-Val-Val-NH2)
II: CC1CCCC(NC(=O)[C@@H](CC2CCCCC2)NC(=O)N[C@@H](CCCCN)C(=O)O)C1 (stereo partly drawn) [Example 41]
III: NCCCC[C@H](NC(=O)N[C@H](CC1CCCCC1)C(=O)N[C@H]1CCc2ccccc2C1)C(=O)O [Example 85]
Descending sort on pIC50 required. Your answer should be the labels, listed in the requested order. III, II, I
(III: 7.41, II: 7.05, I: 6.85)
